- measurement.description: Study of pharmacokinetics in mice in vivo
- Design: species or system C57BL/6 mice
- assay.conditions: male, C57BL/6, mouse, po (intragastric), 50 mg/kg, plasma
observation.type: AUC
Give the figure together with its unit, number first.

The examples below pair each entry with its known result.
- O=C(O)c1cccc(Cn2ccc3cc(Cl)cc(Cl)c32)c1F [Compound 5]: 725 µg·h/mL
- O=C(O)c1cccc(Cn2ncc3cc(Cl)c(Cl)c(Cl)c32)c1F [Compound 28]: 1580 µg·h/mL

Now for the compound whose AUC we want.
Prompt: Record request: AUC value, item Cc1cc(C(F)(F)F)cc2ccn(Cc3cccc(C(=O)O)c3F)c12 [Compound 16]
Completion: 612 µg·h/mL

====

- measurement.description: Study of pharmacokinetics in mice in vivo
- Set-up: species or system C57BL/6 mice
- assay.conditions: male, C57BL/6, mouse, po (intragastric), 50 mg/kg, plasma
Below, each entry is listed with its recorded Cmax.
Unit µg/mL implied. Number only.

Prompt: Record request: Cmax value, item O=C(O)c1cccc(Cn2ccc3cc(Cl)cc(Cl)c32)c1F [Compound 5]
Completion: 121

Prompt: Try Cc1cc(C(F)(F)F)cc2ccn(Cc3cccc(C(=O)O)c3F)c12 [Compound 16] next.
Completion: 93

Prompt: Try O=C(O)c1cccc(Cn2ncc3cc(Cl)c(Cl)c(Cl)c32)c1F [Compound 28] next.
Completion: 132

Data provenance is patent US20260274800A1.
